Just for reference, PubChem BioAssay (NCI) is where these values come from.

The reader will find reported growth values listed item by item below.
Tested on: CAKI-1 renal
Experiment: NCI-60 one-dose screen, 48 h (100 = growth as untreated, 0 = no growth, -100 = all killed)
Details: 10 µM unless noted
This is part of a sample that, as a whole, favours compounds with a hit. Of some 83,000 tested, about 20% had one in any assay.
Value kind: growth (%)

1) CS(=O)(=O)Nc1cc(-c2ccc3ncc(C#N)c(N[C@H](CO)c4ccccc4)c3c2)cnc1Cl    33.3
2) COC(=O)c1[nH]nc2c1C1(C(=O)c3cccc4cccc1c34)C(C#N)=C(N)O2 (configuration not stated)    79.7
3) CCOC(=O)C1=NNC(c2ccc(Cl)cc2)C1C(=O)N1C(=S)NC(=O)C1CC(C)C (configuration not stated)    85.2
4) Cn1ccnc1C(=O)/C=C/c1ccc(NC(=O)c2c(F)c(F)c(F)c(F)c2F)cc1    107
5) O=C(CSc1nc2ccccc2c(=O)n1-c1ccccc1)Nc1cccc(C(=O)/C=C/c2ccccc2Cl)c1    95.9
6) C=C1CC[C@@H]2[C@](C)(CO)[C@H](O)CC[C@@]2(C)[C@@H]1C/C(O)=C1\CCOC1=O    101
7) Cc1cc(C)cc(C(=O)Nc2cccc(C#Cc3cccc4[nH]nc(N)c34)c2)c1    55.3
8) O=C(c1ccc(Cl)cc1)C1[C@H](c2ccc(Cl)cc2)[C@@H](c2ccccc2)NC12C(=O)Nc1ccccc12 (some centres not stated)    37
9) CCO/C=N/C1=C(C#N)C(c2ccc(OC)cc2)c2sc3c(CC)cccc3c2O1 (configuration not stated)    50
10) Cc1cc2ncc(-c3cc4ccccc4c(N4CCN(C)CC4)n3)nc2cc1C    30.2
11) Cc1ccc(NC(=O)c2ccc(CN3CCOCC3)c(C(F)(F)F)c2)cc1Oc1ccc(-c2[nH]nc3ncnc(N)c23)cc1    39.2
12) C=C(C)[C@@H]1CC[C@]2(COP(=O)(OCC)OCC)CC[C@]3(C)[C@H](CC[C@@H]4[C@@]5(C)CCCNC(C)(C)[C@@H]5CC[C@]43C)[C@@H]12    29.1

====

Tested on: HOP-62 NSCLC
Test: NCI-60 one-dose screen, 48 h
Settings: 10 µM unless noted
Compounds without any hit were thinned out: in the full panel of roughly 83,000, 20% have a hit. The source made the active and inactive calls. Rule for the calls: active = growth percent below 10; inactive = the rest.
Classes used: y (active), n (inactive)

1. COc1cc(-c2ccc3ncnc(NCc4ccccc4)c3c2)cnc1OC    n
2. Nc1ccccc1NC(=O)c1ccc(NC(=O)C/C=C/c2cccnc2)cn1    n
3. CC(C)(C)CC(C)(C)n1nnnc1C(Nc1nccs1)c1cc2cccc3ccc4cccc1c4c32 (stereo not given)    n
4. CC(Nc1c(C#N)cnc2ccc(-c3cnc(N)nc3)cc12)c1ccccc1 (stereo not given)    n
5. COc1ccccc1NCc1cccn1Cc1ccc(F)cc1    n
6. Fc1ccc(-c2cc3nc(C(Cl)Cl)nc(-c4ccc(F)cc4)n3n2)cc1    y
7. O=C(CSc1nnc(-c2ccc(Cl)cc2)n1-c1ccccc1)Nc1cccc(Cl)c1    n
8. O=C(Nc1ccc(Br)cc1)Nc1nc2ccc([N+](=O)[O-])cc2s1    y
9. Cc1c(Cl)cccc1S(=O)(=O)Nc1ccc2c(c1)C(=O)N(C1CCC(=O)NC1=O)C2=O (stereo not given)    n
10. Cc1cccc(/C=C/C(=O)Nc2ncc(Cc3cccc(C)c3)s2)c1    n
11. Nc1nc(Nc2ccccc2SSc2ccccc2Nc2nc(N)nc(-c3ccccc3)n2)nc(-c2ccccc2)n1    n
12. O=C(O)c1ccc(-n2cc(CNc3cccc(Cl)c3)c(-c3ccc(F)cc3)n2)cc1    n
13. NS(=O)(=O)c1ccc(Nc2nc(N/N=C/c3ccccn3)nc(Nc3ccccc3)n2)cc1    y
14. C=C=COc1cccc(/C(N)=N/C(N)=N/c2nc3ccccc3s2)c1    n
15. COc1ccc(COc2ccc(/C=C3\C(=O)Nc4ccccc43)cc2OC)cc1    n

====

Test system: SW-620 colon
Test: NCI-60 one-dose screen, 48 h (100 = growth as untreated, 0 = no growth, -100 = all killed)
Settings: 10 µM unless noted
Compounds without any hit were thinned out: in the full panel of roughly 83,000, 20% have a hit.
Record yes whenever growth is at 60% or higher; record no when lower.

1. COc1c(N2CC3CCCNC3C2)c(F)cc2c(=O)c(C(=O)N/N=C/c3c[nH]c4ccccc34)cn(C3CC3)c12 (stereo unspecified)    yes
2. CC(c1ccccc1)N1CSc2nc3ncncc3n2C1 (stereo unspecified)    no
3. CC1(C)NCCC[C@]2(C)[C@H]3C/C(=N\O)C4[C@@H]5C[C@@](C)(CO)CC[C@]5(C)CC[C@@]4(C)[C@]3(C)CC[C@@H]12 (stereo partly specified)    yes
4. O=C1[C@H]2Cc3c([nH]c4ccccc34)[C@@H](c3ccc(Cl)cc3)N2C(=O)CN1C1CCN(Cc2ccccc2)CC1    yes
5. O=C(CCC(=O)N1CCOCC1)OCCCCCCSc1ccc([N+](=O)[O-])c2nonc12    no
6. NS(=O)(=O)c1ccc(-n2cc(-c3cccc(NC(=O)c4ccc(N5CCOCC5)c(C(F)(F)F)c4)c3)nn2)cc1    yes
7. NC(N)=Nc1ccc(Oc2cccc(NC(N)=Nc3ccc(Br)cc3)c2)cn1    yes
8. CCN(CC)CCn1c2ccc(O)cc2c2sc3cc(OC)ccc3c(=O)c21    no
9. CC(C)(C)CC(C)(C)n1nnnc1C(Nc1nccs1)c1cc2cccc3ccc4cccc1c4c32 (stereo unspecified)    yes
10. Brc1ccccc1/C=N/Nc1nc(N/N=C/c2ccccc2Br)nc(N2CCOCC2)n1    yes
11. Cc1cccc2c3c(sc12)C(c1ccc(Cl)cc1)c1c(nc(CC(=O)Nc2ccccc2)[nH]c1=O)O3 (stereo unspecified)    no
12. C#CCOc1ccc(/C=N\Nc2nc(-c3ccc(C)cc3)cs2)cc1OC    yes
13. CCCC(=O)NC(c1cccnc1)c1cc(C(C)(C)C)c2cccnc2c1O (stereo unspecified)    no
14. Cc1cccc2c3c(sc12)C(c1ccc(F)cc1)C(C#N)=C(/N=C/c1ccc(Cl)cc1)O3 (stereo unspecified)    no
15. O=c1[nH]c2ccccc2cc1CSc1ccccc1Nc1nccc(-c2ccc(Cl)cc2)n1    yes
16. O=C(CNc1nc(-c2cccc([N+](=O)[O-])c2)cs1)Nc1cccc(Cl)c1    yes
17. O=C(c1ccc(O)c(C(=O)N2Cc3ccc(OCCC[P+](c4ccccc4)(c4ccccc4)c4ccccc4)cc3C2)c1)N1Cc2cccc(F)c2C1    yes
18. COc1cc2nc(Cl)nc(Nc3cccc(C4=Nc5c(N)nc(N)nc5NC(c5ccccc5)C4)c3)c2cc1OC (stereo unspecified)    yes
19. CCc1cccc2c3c(sc12)C(c1ccc(Cl)cc1)C(C#N)=C(/N=C/c1ccc(Cl)cc1)O3 (stereo unspecified)    no
20. CCOc1cccc(-c2nc3sccn3c2-c2ccnc(S(C)(=O)=O)n2)c1    yes
21. ClC(Cl)c1nc(-c2ccco2)n2nc(-c3ccccc3)cc2n1    no

====

Test system: BT-549 breast
Experiment: NCI-60 one-dose screen, 48 h (100 = growth as untreated, 0 = no growth, -100 = all killed)
Settings: 10 µM unless noted
This is part of a sample that, as a whole, favours compounds with a hit. Of some 83,000 tested, about 20% had one in any assay.
Response field label: string, one of Met (growth strictly below 70%) or Not met.

1) C=C=COc1cccc(/C(N)=N/C(N)=N/c2nc3ccccc3s2)c1    Met
2) O=C(NNc1nc2cc(F)c(F)cc2n2c(CN3CC4CNCC4C3)ccc12)c1ncccn1 (configuration not stated)    Met
3) CC(O)c1cc2ccccc2c(=O)o1 (configuration not stated)    Not met
4) CCCCCc1ccc(S(=O)(=O)Nc2cccc(-c3csc(NC(=O)CNCCN(C)C)n3)c2)cc1    Not met
5) O=C(Nc1cccc(C(F)(F)F)c1)c1cc(-c2ccc(F)cc2F)ccc1O    Met
6) CNC1CCc2c(sc(NC(=O)c3ccc(C(C)(C)C)cc3)c2C(N)=O)C1 (configuration not stated)    Not met
7) Cc1ccc(NC(=O)c2ccc(CN3CCOCC3)c(C(F)(F)F)c2)cc1Oc1ccc(-c2[nH]nc3ncnc(N)c23)cc1    Met
8) Nc1nc(-c2cccc([N+](=O)[O-])c2)c(N=Nc2cccc([N+](=O)[O-])c2)s1    Met
9) CCNC(=O)N1CCc2cc(OC)c(OCCc3ccc(OC)cc3)cc2C1c1ccc(OC)cc1C (configuration not stated)    Met
10) COc1ccc(-c2nc(C(Cl)Cl)nc3cc(-c4ccccc4)nn23)cc1    Met
11) Cc1ccc(-c2cc3nc(C(Cl)Cl)nc(-c4ccco4)n3n2)cc1    Not met
12) CCCCCc1ccc(S(=O)(=O)Nc2cc(-c3csc(NC(=O)CN4CCN(C)CC4)n3)ccc2N2CCN(C)CC2)cc1    Not met
13) O=C1[C@@H]2Cc3c([nH]c4ccccc34)[C@H](c3c(Cl)cccc3Cl)N2C(=O)CN1C1CCN(CC2CCCCC2)CC1    Met
14) CC(C)(C)c1ccc(C(=O)Nc2nc3ccc(O)cc3s2)cc1    Met
15) Cc1ccc(NC(=S)NNC(=S)Nc2ccc(C)cc2)cc1    Not met
16) O=C(NNc1nc2cc(F)c(F)cc2n2c(CN3CC4CNCC4C3)ccc12)c1cnccn1 (configuration not stated)    Met
17) COc1ccc(CCN2C(=O)CSC2=S)cc1    Not met
18) O=C1[C@H]2Cc3c([nH]c4ccccc34)[C@@H](c3c(Cl)cccc3Cl)N2C(=O)CN1C1CCN(CC2CCCCC2)CC1    Not met
19) N=c1c2cc(-c3ccccc3)oc2ncn1/N=C/c1ccc(Cl)cc1    Not met
20) COc1ccc2c(c1)c(CC(=O)[Se]CCC#N)c(C)n2C(=O)c1ccc(Cl)cc1    Met
21) COc1cc2nc(Cl)nc(Nc3cccc(C4=Nc5c(N)nc(N)nc5NC(c5ccc(Br)cc5)C4)c3)c2cc1OC (configuration not stated)    Not met
22) O=C(NCc1ncc[nH]1)c1ccc(-c2nc3ccc4[nH]ncc4c3c3c2CCCC3)cc1    Met
23) O=C1CCCc2nc(Nc3ccc(S(=O)(=O)Nc4ccc([N+](=O)[O-])cc4)cc3)ncc21    Not met
24) NC(N)=Nc1ccc(Oc2cccc(Nc3ccc(Br)c(C(F)(F)F)c3)c2)cn1    Met
25) N=c1c2cc(-c3ccccc3)oc2ncn1/N=C/c1ccc(Br)cc1    Not met
26) Nc1nc(-c2cccc([N+](=O)[O-])c2)c(N=Nc2ccc(Br)cc2)s1    Met
